system: Plasmodium berghei; assay: Screen against P. berghei liver stage (PbLuc), transformed with Luciferase, at 2uM; type: functional, HepG2; conditions: tested at 2 uM
In all, about 68,000 compounds went through this assay and about 2,700 (4%) showed an effect of 50% or more. This excerpt belongs to a sample that is enriched for strong results.
# label = Condition met if INHIBITION >= 20% else Condition not met

>  <molecule>
O=C(O)c1ccc(F)c(S(=O)(=O)Nc2c(F)cccc2-n2cccn2)c1

>  <class>
Condition met

$$$$
>  <molecule>
COc1cnc(N2CCCC(c3ncc[nH]3)C2)nc1 (centres undefined)

>  <class>
Condition not met

$$$$
>  <molecule>
CN(C)CCN1CCO[C@@H]2CN(C(=O)Cc3ccsc3)CC[C@@H]2C1

>  <class>
Condition not met

$$$$
>  <molecule>
O=C(COCC1CC1)N1CCCC(n2cncn2)C1 (centres undefined)

>  <class>
Condition met

$$$$
>  <molecule>
O=C(COCCOc1ccccc1)N1CCCC(n2ccnc2)C1 (centres undefined)

>  <class>
Condition met

$$$$
>  <molecule>
Cc1nnc(NC(=O)CN2CCc3nn(C)c(=O)cc3C2)s1

>  <class>
Condition met

$$$$
>  <molecule>
Cc1ccc(N2CC3(COCCN(Cc4ccncc4)C3)OCC2=O)s1 (centres undefined)

>  <class>
Condition not met

$$$$
>  <molecule>
COc1cc(C(=O)NC(C)C)nc2c(C)cc(F)cc12

>  <class>
Condition met

$$$$
>  <molecule>
Cc1cc(CC(=O)N2CCN(CC3CC3)[C@@H]3CS(=O)(=O)C[C@@H]32)ccc1F

>  <class>
Condition not met

$$$$
>  <molecule>
CC(C(=O)Nc1ccnn1C(C)C)N1CCN(Cc2ccccc2)CC1 (centres undefined)

>  <class>
Condition met

$$$$
>  <molecule>
Cn1nccc1C(=O)N1CCN(C(=O)C2CC2)[C@@H]2CS(=O)(=O)C[C@@H]21

>  <class>
Condition not met

$$$$
>  <molecule>
CC(C(=O)Nc1ccnn1C(C)C)N1CCN(Cc2ccon2)CC1 (centres undefined)

>  <class>
Condition met

$$$$
>  <molecule>
O=C(NCc1ccon1)c1c(F)cc(Br)cc1F

>  <class>
Condition not met

$$$$
>  <molecule>
O=C(COCC1CC1)N1CCCC(n2ccnc2)C1 (centres undefined)

>  <class>
Condition met

$$$$
>  <molecule>
CS(=O)(=O)NCC1CCCN(C(=O)Nc2ccccc2Cl)C1 (centres undefined)

>  <class>
Condition not met

$$$$
>  <molecule>
O=C(NCCc1ccncc1)c1ccc(N2CCOCC2)cc1

>  <class>
Condition met

$$$$
>  <molecule>
FC(F)(F)Cn1ccnc1CN1CCCC1c1noc(C2CC2)n1 (centres undefined)

>  <class>
Condition not met

$$$$
>  <molecule>
CCCN1CCN(Cc2cccc(OC(C)C)c2)[C@H]2CS(=O)(=O)C[C@H]21

>  <class>
Condition not met

$$$$
>  <molecule>
CS(=O)(=O)c1cnc(N2CCCC2)nc1C1CCN(C(=O)C2CC2)CC1

>  <class>
Condition not met

$$$$
>  <molecule>
CS(=O)(=O)NCC1CCCN(C(=O)Nc2ccccc2F)C1 (centres undefined)

>  <class>
Condition not met

$$$$
>  <molecule>
COCCN1CCN(C(C)C(=O)Nc2ccnn2C(C)C)CC1 (centres undefined)

>  <class>
Condition met

$$$$
>  <molecule>
CC[C@H]1CN(C(=O)c2cnc(CN3CCCC3)s2)CC[C@@]1(C)O

>  <class>
Condition not met

$$$$
>  <molecule>
CN1CCO[C@@H]2CN(C(=O)NCc3ccccc3)CC[C@@H]2C1

>  <class>
Condition met

$$$$
>  <molecule>
O=C(COC1CCCCC1)N1CCCC(n2ccnc2)C1 (centres undefined)

>  <class>
Condition not met

$$$$
>  <molecule>
CC(CN(C)C)Nc1nc(O)cc(Cc2ccccc2F)n1 (centres undefined)

>  <class>
Condition met

$$$$
>  <molecule>
CCN1CCO[C@@H]2CN(C(=O)NCc3ccccc3)CC[C@@H]2C1

>  <class>
Condition not met

$$$$
>  <molecule>
O=C(NCCCc1ccco1)c1ccc(N2CCOCC2)cc1

>  <class>
Condition not met

$$$$
>  <molecule>
Cc1oc(NC(=O)C(C)N2CCN(C(=O)C3CC3)CC2)c(C#N)c1C (centres undefined)

>  <class>
Condition met

$$$$
>  <molecule>
CC(=O)N1CCO[C@@H]2CN(C(=O)NCc3ccccc3)CC[C@@H]2C1

>  <class>
Condition not met

$$$$
>  <molecule>
Cc1ccc(CC(=O)N2CC[C@@H]3CN(CCN(C)C)CCO[C@@H]3C2)cc1

>  <class>
Condition met

$$$$
>  <molecule>
Cc1oc(-c2nc(C#N)c(NC(C)C)o2)cc1S(=O)(=O)N1CCCCC1

>  <class>
Condition met

$$$$
>  <molecule>
O=C(Cc1ccc(O)c(Cl)c1)N1CCN(CC2CC2)[C@@H]2CS(=O)(=O)C[C@@H]21

>  <class>
Condition not met

$$$$
>  <molecule>
O=C(NCCCc1ccc(F)cc1)c1ccc(N2CCOCC2)cc1

>  <class>
Condition not met

$$$$
>  <molecule>
CC(C)N(C)CC(=O)NCCc1nc(C(F)(F)F)cs1

>  <class>
Condition not met

$$$$
>  <molecule>
CN(C)c1cc(NCc2cnc3n2CCN(CC2CC2)CC3)ncn1

>  <class>
Condition met

$$$$
>  <molecule>
COCCN1CCO[C@@H]2CN(C(=O)Cc3ccc(F)cc3)CC[C@@H]2C1

>  <class>
Condition not met

$$$$
>  <molecule>
O=C(Cc1ccc(CO)cc1)N1CCN(CC2CC2)[C@@H]2CS(=O)(=O)C[C@@H]21

>  <class>
Condition met

$$$$
>  <molecule>
CN1[C@H](CN2CCCC2)C[C@@H]2CN(C(=O)Cc3cccs3)CC[C@@H]21

>  <class>
Condition not met

$$$$
>  <molecule>
COc1ccnc(N2CCC3(CC2)[C@H](O)C[C@@H]3OCCN(C)C)n1

>  <class>
Condition not met

$$$$
>  <molecule>
CC(NC(=O)NCCCN1CCc2ccccc2C1)c1nncn1C (centres undefined)

>  <class>
Condition not met

$$$$
>  <molecule>
Cc1ccc(N2CC3(COCCN(Cc4nccs4)C3)OCC2=O)s1 (centres undefined)

>  <class>
Condition met

$$$$
>  <molecule>
Cc1occc1C(=O)N1CCOCC2(CCN(C3CCOCC3)C2)C1 (centres undefined)

>  <class>
Condition met

$$$$
>  <molecule>
COc1ccc(OC2CCN(C(=O)CCc3n[nH]c(N)n3)CC2)cc1

>  <class>
Condition not met

$$$$
>  <molecule>
O=C(COCC1CC1)N1CCCC(n2cccn2)C1 (centres undefined)

>  <class>
Condition not met

$$$$

* * *

tested on: Plasmodium berghei; experiment: Screen against P. berghei liver stage (PbLuc), transformed with Luciferase, at 2uM; format: functional, HepG2; details: tested at 2 uM
The campaign covered roughly 68,000 compounds. About 2,700 (4%) showed an effect of 50% or more. This excerpt belongs to a sample that is enriched for strong results.
This listing pairs compounds with measured INHIBITION.

>  <compound>
Cc1ccc(CN(C)C(=O)CN2CC(n3cccn3)C2)o1

>  <readout units>
%

>  <INHIBITION>
3

$$$$
>  <compound>
CNc1cccc(C2CCCN(C(=O)c3cncs3)C2)n1 (configuration not stated)

>  <readout units>
%

>  <INHIBITION>
-33.77

$$$$
>  <compound>
Cc1cnn(CC2CCCN2C(=O)c2ccc(C(N)=O)cn2)c1 (configuration not stated)

>  <readout units>
%

>  <INHIBITION>
40.29

$$$$
>  <compound>
CCCN(CCC)C1(Cc2cc(-c3cccc(O)c3)on2)COC1

>  <readout units>
%

>  <INHIBITION>
50.72

$$$$
>  <compound>
Cc1cnn(C2CN(CC(=O)N(C)Cc3ccc(C)o3)C2)c1

>  <readout units>
%

>  <INHIBITION>
62.51

$$$$
>  <compound>
Cc1cnn(C2CN(CC(=O)N(C)Cc3cccs3)C2)c1

>  <readout units>
%

>  <INHIBITION>
7.67

$$$$
>  <compound>
Cc1cnn(CC2CCCCN2C(=O)c2csc(C)n2)c1 (configuration not stated)

>  <readout units>
%

>  <INHIBITION>
53.58

$$$$
>  <compound>
CN(C)c1ncccc1CNC(=O)N(Cc1ccccc1F)C1CC1

>  <readout units>
%

>  <INHIBITION>
-20.35

$$$$
>  <compound>
CCN(CC)C1(Cc2cc(-c3cccc(O)c3)on2)COC1

>  <readout units>
%

>  <INHIBITION>
10.08

$$$$
>  <compound>
O=C(NCc1ccncc1)N(Cc1ccccc1F)C1CC1

>  <readout units>
%

>  <INHIBITION>
14.83

$$$$
>  <compound>
COCc1nc(C(=O)N2CCCCC2Cn2cc(C)cn2)cs1 (configuration not stated)

>  <readout units>
%

>  <INHIBITION>
29.71

$$$$
>  <compound>
COCCN1CCCC(O)(CN2CCN(Cc3ccncc3)CC2)C1=O (configuration not stated)

>  <readout units>
%

>  <INHIBITION>
15.73

$$$$
